Just for reference, patent US20220251116A1 is where these values come from.

Task for the reader: assign each of the following compounds its reported pIC50.
Target: recombinant human arginase 1 (Homo sapiens, UniProt P05089)
Experiment: Arginase inhibitory activity test, enzymatic assay based on urea measurement (Arg 1)
Sequence (P05089 whole entry, looked up): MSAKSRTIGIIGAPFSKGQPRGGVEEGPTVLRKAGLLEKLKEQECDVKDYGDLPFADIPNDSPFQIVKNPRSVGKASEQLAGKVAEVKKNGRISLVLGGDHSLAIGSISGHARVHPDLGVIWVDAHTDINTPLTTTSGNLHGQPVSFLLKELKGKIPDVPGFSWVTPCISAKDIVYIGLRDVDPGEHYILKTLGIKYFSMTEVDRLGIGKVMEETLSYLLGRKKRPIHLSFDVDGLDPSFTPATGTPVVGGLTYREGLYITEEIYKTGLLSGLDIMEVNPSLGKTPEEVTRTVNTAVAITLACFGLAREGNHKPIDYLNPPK
pIC50: −log10 of the molar value.

- COMPOUND: "CN(C[C@H](N)C(F)F)S(=O)(=O)N1C[C@H](CCCB(O)O)[C@](N)(C(=O)O)C1 (racemic)"
  pIC50: "6.00 to 7.00"

pIC50 lookup needed for N[C@@H](CNS(=O)(=O)N1C[C@H](CCCB(O)O)[C@](N)(C(=O)O)C1)C(F)F (racemic) , thanks.
6.00 to 7.00

====

Target: recombinant human arginase 2 (Homo sapiens, UniProt P78540)
Sequence (P78540 23-354): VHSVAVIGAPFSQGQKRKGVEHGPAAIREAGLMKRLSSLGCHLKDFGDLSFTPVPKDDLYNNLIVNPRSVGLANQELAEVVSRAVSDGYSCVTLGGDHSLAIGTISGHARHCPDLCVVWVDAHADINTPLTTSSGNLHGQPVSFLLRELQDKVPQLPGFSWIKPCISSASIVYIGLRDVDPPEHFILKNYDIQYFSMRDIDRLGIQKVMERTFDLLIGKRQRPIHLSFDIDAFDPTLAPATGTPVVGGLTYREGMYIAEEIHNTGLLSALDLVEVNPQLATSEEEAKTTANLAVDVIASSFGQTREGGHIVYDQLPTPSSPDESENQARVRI
Assay: Arginase inhibitory activity test, enzymatic assay based on urea measurement (Arg 2)
Format: biochemical
Conditions: 37° C. for 120 min, urea detection, read-out: Arg 2 enzymatic potency
pIC50: −log10 of the molar value.
ENDPOINT NAME: pIC50

Known results for compounds:
- COMPOUND: "CC(C)(CN)NS(=O)(=O)N1C[C@H](CCCB(O)O)[C@](N)(C(=O)O)C1 (racemic)"
  pIC50: "> 7.00"
- COMPOUND: "N[C@@]1(C(=O)O)CN(S(=O)(=O)N2CCNCC2)C[C@@H]1CCCB(O)O (racemic)"
  pIC50: "6.00 to 7.00"
- COMPOUND: "N[C@@]1(C(=O)O)CN(S(=O)(=O)Nc2cc[nH]n2)C[C@@H]1CCCB(O)O (racemic)"
  pIC50: "6.00 to 7.00"

Continue with the next compound.
pIC50 lookup needed for N[C@@]1(C(=O)O)CN(S(=O)(=O)Nc2ccccn2)C[C@@H]1CCCB(O)O (racemic) , thanks.
6.00 to 7.00

====

Task for the reader: assign each of the following molecules its reported IC50.
Target: recombinant human arginase 1 (Homo sapiens)
Assay: Arginase inhibitory activity test, enzymatic assay based on urea measurement (Arg 1)
Sequence (P05089 whole entry): as the sequence (P05089 whole entry, looked up) above

Known results for molecules:
- MOLECULE: "CN(C)CCN(C)S(=O)(=O)N1C[C@H](CCCB(O)O)[C@](N)(C(=O)O)C1 (racemic) [Example 45]"
  MEASURED: "0.1 to 1 µM"
- MOLECULE: "NCC1(NS(=O)(=O)N2C[C@H](CCCB(O)O)[C@](N)(C(=O)O)C2)COC1 (racemic) [Example 31]"
  MEASURED: "< 0.1 µM"
- MOLECULE: "CC(C)N(C1CNC1)S(=O)(=O)N1C[C@H](CCCB(O)O)[C@](N)(C(=O)O)C1 [Example 57]"
  MEASURED: "< 0.1 µM"

Could you report IC50 for every entry in the following list?
1. CC(C)CN(C1CNC1)S(=O)(=O)N1C[C@H](CCCB(O)O)[C@](N)(C(=O)O)C1 [Example 60]
2. NC1(CN(CC2CC2)S(=O)(=O)N2C[C@H](CCCB(O)O)[C@](N)(C(=O)O)C2)CC1 [Example 68]
3. NC1(CNS(=O)(=O)N2C[C@H](CCCB(O)O)[C@](N)(C(=O)O)C2)CC1 (racemic) [Example 19]
4. Nc1ccccc1NS(=O)(=O)N1C[C@H](CCCB(O)O)[C@](N)(C(=O)O)C1 (racemic) [Example 13]
5. NC1COCC1NS(=O)(=O)N1CC(CCCB(O)O)C(N)(C(=O)O)C1 (racemic) [Example 41]

1. < 0.1 µM
2. < 0.1 µM
3. 0.1 to 1 µM
4. 0.1 to 1 µM
5. 0.1 to 1 µM

====

Molecular target: recombinant human arginase 2 (Homo sapiens, UniProt P78540)
Experiment: Arginase inhibitory activity test, enzymatic assay based on urea measurement (Arg 2)
Conditions: 37° C. for 120 min, urea detection, read-out: Arg 2 enzymatic potency
ENDPOINT NAME: IC50

Known results for molecules:
- MOLECULE: "NCCNS(=O)(=O)N1C[C@H](CCCB(O)O)[C@](N)(C(=O)O)C1 (racemic)"
  IC50: "< 100 nM"
- MOLECULE: "NCC1(NS(=O)(=O)N2C[C@H](CCCB(O)O)[C@](N)(C(=O)O)C2)COC1 (racemic)"
  IC50: "100 to 1000 nM"
- MOLECULE: "Nc1c(N2C[C@H](CCCB(O)O)[C@](N)(C(=O)O)C2)c(=O)c1=O (racemic)"
  IC50: "100 to 1000 nM"
- MOLECULE: "N=C(N)N1C[C@H](CCCB(O)O)[C@](N)(C(=O)O)C1 (racemic)"
  IC50: "100 to 1000 nM"
- MOLECULE: "N[C@@]1(C(=O)O)CN(S(N)(=O)=O)C[C@@H]1CCCB(O)O (racemic)"
  IC50: "100 to 1000 nM"

IC50 lookup needed for CC(C)(N)CNS(=O)(=O)N1C[C@H](CCCB(O)O)[C@](N)(C(=O)O)C1 (racemic) , thanks.
< 100 nM

====

Target: recombinant human arginase 1 (Homo sapiens, UniProt P05089)
Experiment: Arginase inhibitory activity test, enzymatic assay based on urea measurement (Arg 1)
pIC50: −log10 of the molar value.
ENDPOINT NAME: pIC50

Known results for molecules:
- MOLECULE: "N=C(N)N1C[C@H](CCCB(O)O)[C@](N)(C(=O)O)C1 (racemic)"
  MEASURED: "6.00 to 7.00"
- MOLECULE: "N[C@@]1(C(=O)O)CN(S(=O)(=O)N(CC2CC2)[C@H]2CCCNC2)C[C@@H]1CCCB(O)O"
  MEASURED: "> 7.00"
- MOLECULE: "NC(=O)NS(=O)(=O)N1C[C@H](CCCB(O)O)[C@](N)(C(=O)O)C1 (racemic)"
  MEASURED: "5.00 to 6.00"
- MOLECULE: "NC1CC1N(CC1CC1)S(=O)(=O)N1C[C@H](CCCB(O)O)[C@](N)(C(=O)O)C1 (stereo partly shown)"
  MEASURED: "> 7.00"
- MOLECULE: "N=C(N)NCCNS(=O)(=O)N1C[C@H](CCCB(O)O)[C@](N)(C(=O)O)C1 (racemic)"
  MEASURED: "6.00 to 7.00"
- MOLECULE: "CC(C)(CN)NS(=O)(=O)N1C[C@H](CCCB(O)O)[C@](N)(C(=O)O)C1 (racemic)"
  MEASURED: "> 7.00"
- MOLECULE: "CNS(=O)(=O)N1C[C@H](CCCB(O)O)[C@](N)(C(=O)O)C1 (racemic)"
  MEASURED: "5.00 to 6.00"
- MOLECULE: "CNCCN(C)S(=O)(=O)N1C[C@H](CCCB(O)O)[C@](N)(C(=O)O)C1 (racemic)"
  MEASURED: "> 7.00"

Could you report pIC50 for every entry in the following list?
1. CN(CCN)S(=O)(=O)N1C[C@H](CCCB(O)O)[C@](N)(C(=O)O)C1
2. N[C@H]1COCC1NS(=O)(=O)N1C[C@H](CCCB(O)O)[C@](N)(C(=O)O)C1 (mixture of isomers)
3. N[C@@]1(C(=O)O)CN(S(=O)(=O)N(CC2CC2)C2CNC2)C[C@@H]1CCCB(O)O
4. N[C@@H](CNS(=O)(=O)N1C[C@H](CCCB(O)O)[C@](N)(C(=O)O)C1)C(=O)O (racemic)

> 7.00
6.00 to 7.00
> 7.00
6.00 to 7.00

Could you report pIC50 for every entry in the following list?
1. NC(=O)CNS(=O)(=O)N1C[C@H](CCCB(O)O)[C@](N)(C(=O)O)C1 (racemic)
2. CCCCN(C1CNC1)S(=O)(=O)N1C[C@H](CCCB(O)O)[C@](N)(C(=O)O)C1
3. CC(C)(N)C(C)(C)NS(=O)(=O)N1C[C@H](CCCB(O)O)[C@](N)(C(=O)O)C1 (racemic)
4. N[C@@]1(C(=O)O)CN(S(=O)(=O)N(Cc2ccccc2)C2CNC2)C[C@@H]1CCCB(O)O

1: 5.00 to 6.00; 2: > 7.00; 3: 6.00 to 7.00; 4: > 7.00

====

Molecular target: recombinant human arginase 1 (Homo sapiens, UniProt P05089)
Assay: Arginase inhibitory activity test, enzymatic assay based on urea measurement (Arg 1);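 note: enzyme incubated with L-arginine substrate and compound at 37 °C for 120 min, urea product detected colorimetrically by absorbance at 450 nm, background from wells lacking enzyme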
pIC50: −log10 of the molar value.
ENDPOINT NAME: pIC50

Known results for molecules:
- MOLECULE: "CN1CCN(S(=O)(=O)N2C[C@H](CCCB(O)O)[C@](N)(C(=O)O)C2)CC1 (racemic) [Example 44]"
  pIC50: "6.00 to 7.00"
- MOLECULE: "N[C@@]1(C(=O)O)CN(S(=O)(=O)N(CC2CC2)C2CCNCC2)C[C@@H]1CCCB(O)O [Example 74]"
  pIC50: "> 7.00"
- MOLECULE: "N[C@H]1CC1NS(=O)(=O)N1C[C@H](CCCB(O)O)[C@](N)(C(=O)O)C1 (relative stereo) [Example 40]"
  pIC50: "6.00 to 7.00"

pIC50 lookup needed for N[C@@]1(C(=O)O)CN(S(=O)(=O)Nc2ccccn2)C[C@@H]1CCCB(O)O (racemic) [Example 4] , thanks.
6.00 to 7.00
